- targetOfAssay: TLR7 (Homo sapiens, UniProt Q9NYK1)
- Construct: lymphocytes, monocytes and dendritic cells that express TLR7, TLR8 and TLR9; endogenous in cells; host or cells: human PBMCs from healthy donors
- Sequence (Q9NYK1 27-1049): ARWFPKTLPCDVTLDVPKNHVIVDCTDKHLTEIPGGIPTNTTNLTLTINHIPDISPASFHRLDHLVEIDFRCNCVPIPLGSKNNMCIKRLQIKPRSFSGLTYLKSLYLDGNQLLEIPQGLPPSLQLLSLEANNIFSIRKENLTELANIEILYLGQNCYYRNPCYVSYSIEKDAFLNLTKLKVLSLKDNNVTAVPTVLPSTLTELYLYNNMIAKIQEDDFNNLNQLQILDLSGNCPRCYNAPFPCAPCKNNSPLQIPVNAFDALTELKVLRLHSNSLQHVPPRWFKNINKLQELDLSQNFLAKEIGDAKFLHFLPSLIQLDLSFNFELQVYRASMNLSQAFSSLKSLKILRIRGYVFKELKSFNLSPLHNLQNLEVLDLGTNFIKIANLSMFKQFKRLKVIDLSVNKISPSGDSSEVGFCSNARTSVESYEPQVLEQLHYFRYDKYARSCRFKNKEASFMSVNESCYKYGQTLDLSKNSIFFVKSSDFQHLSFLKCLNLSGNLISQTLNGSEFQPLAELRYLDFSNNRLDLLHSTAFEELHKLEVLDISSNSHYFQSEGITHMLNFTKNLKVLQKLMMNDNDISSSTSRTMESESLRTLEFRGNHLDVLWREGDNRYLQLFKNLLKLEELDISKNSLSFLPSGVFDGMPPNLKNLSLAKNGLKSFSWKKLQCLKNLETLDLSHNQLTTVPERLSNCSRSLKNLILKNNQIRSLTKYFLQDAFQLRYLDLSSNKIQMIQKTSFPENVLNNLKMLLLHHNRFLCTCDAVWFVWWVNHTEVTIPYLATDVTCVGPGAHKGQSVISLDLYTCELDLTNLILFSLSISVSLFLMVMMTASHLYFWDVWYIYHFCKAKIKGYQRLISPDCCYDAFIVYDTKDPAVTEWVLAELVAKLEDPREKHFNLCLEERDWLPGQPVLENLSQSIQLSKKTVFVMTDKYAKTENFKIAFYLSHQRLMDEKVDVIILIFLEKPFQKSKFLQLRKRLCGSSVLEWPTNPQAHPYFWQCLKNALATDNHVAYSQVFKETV
- methodNotes: Human PBMC cell-based assay, TLR7 agonist GS-986 stimulation, cytokine (IL-6 and IFNα) readout
- testParameters: human PBMCs, GS-986 400 nM, 6 hours; Table 26; read-out: TLR-7 EC50
Catalogue of EC50 readings, one per entry.
measuredMetric: EC50 (µM)

> print(dat)
                      structuresmilesstring  unitstext  datavalue
1  Cc1nn(C)cc1-c1[nH]c2cc(-c3ccc(N4CCNCC4)nc3)ccc2c1C         µM      0.317
2  Cc1cc(-c2[nH]c3cc(-c4ccc(CN5CCNCC5)cc4)ccc3c2C)cc(C)n1         µM       0.17
3  Cc1c(-c2cc(C)c3ncnn3c2)[nH]c2cc(-c3cnc4c(c3)CNCC4)ccc12         µM    0.00137
4  Cc1cc(-c2[nH]c3cc(-c4ccc(N5CCNCC5)nc4)ccc3c2C2CC2)cn(C)c1=O         µM    0.00033

----------
- targetOfAssay: TLR7 (Homo sapiens)
- Construct: lymphocytes, monocytes and dendritic cells that express TLR7, TLR8 and TLR9; endogenous in cells; host or cells: human PBMCs from healthy donors
- methodNotes: Human PBMC cell-based assay, TLR7 agonist GS-986 stimulation, cytokine (IL-6 and IFNα) readout
- testParameters: human PBMCs, GS-986 400 nM, 6 hours; Table 26; read-out: TLR-7 EC50
- Text: Human peripheral blood mononuclear cells (PBMCs) consist of lymphocytes, monocytes and dendritic cells that express TLR7, TLR8 and TLR9. These cells respond to TLR7, TLR8 and TLR9 ligand stimulation and produce cytokines and chemokines in vitro and in vivo. Human PBMCs are therefore suitable to be used in a cell-based assay to assess the in vitro potency of a TLR 7, 8, and/or 9 antagonist. […]
pEC50: −log10 of the molar value.
Catalogue of pEC50 readings, one per entry.
measuredMetric: pEC50

> print(dat)
                                    compound  measuredmetric  datavalue
 1  Cc1cc(-c2[nH]c3cc(-c4cccc(S(=O)(=O)N5CCNCC5)c4)ccc3c2C)cc(C)n1           pEC50       6.68
 2  Cc1cc(-c2[nH]c3cc(-c4ccc(N5CC[C@@H](NCCO)C5)nc4)ccc3c2C)cc(C)n1           pEC50       7.79
 3  Cc1cncc(-c2[nH]c3cc(-c4ccc(N5CCNCC5)nc4)ccc3c2C)n1           pEC50       5.95
 4  Cc1cc(-c2[nH]c3cc(-c4ccc(N5CC[N+](CCN(C)C)(CCN(C)C)CC5)nc4)ccc3c2C)cc(C)n1           pEC50       6.41
 5  Cc1cc(-c2[nH]c3cc(-c4cnc5[nH]c(C)nc5c4)ccc3c2C)cc(C)n1           pEC50       6.48
 6  Cc1cc(-c2[nH]c3cc(-c4cccc(C(=O)N5CC6CNCC6C5)c4)ccc3c2C)cc(C)n1 (stereo not shown)           pEC50       6.43
 7  Cc1cc(-c2[nH]c3cc(-c4ccnc(N5CCOCC5)c4)ccc3c2C)cc(C)n1           pEC50       6.09
 8  Cc1cc(-c2[nH]c3cc(-c4ccc(S(=O)(=O)N5CCNCC5)cc4)ccc3c2C)cc(C)n1           pEC50       6.49
 9  Cc1cc(-c2[nH]c3cc(-c4ccc(N5CCN(C(=O)CN(C)C)CC5)nc4)ccc3c2C)cc(C)n1           pEC50       7.40
10  Cc1cc(-c2[nH]c3cc(-c4ccc(N5CCNCC5)nc4)ccc3c2C)ccn1           pEC50       7.48
11  Cc1cc(-c2[nH]c3nc(-c4ccc(N5CCNCC5)nc4)ccc3c2C)cc(C)n1           pEC50       6.12
12  Cc1cc(-c2[nH]c3cc(-c4cccc(C(=O)N5CC[C@@H](N)C5)c4)ccc3c2C)cc(C)n1           pEC50       6.87
13  Cc1cc(-c2[nH]c3cc(-c4ccc(N5CCN(C6COC6)CC5)nc4)ccc3c2C)cc(C)n1           pEC50       6.56
14  Cc1cc(-c2[nH]c3cc(-c4ccc(N5CCN(CCO)CC5)nc4)ccc3c2C)cc(C)n1           pEC50       7.76
15  Cc1cc(-c2[nH]c3cc(C4CCNC4)ccc3c2C)cc(C)n1 (stereo not shown)           pEC50       5.86
16  Cc1cc(-c2[nH]c3cc(-c4cnc(N5CCNCC5)nc4)ccc3c2C)cc(C)n1           pEC50       7.82

----------
- targetOfAssay: TLR7 (Homo sapiens)
- Construct: lymphocytes, monocytes and dendritic cells that express TLR7, TLR8 and TLR9; endogenous in cells; host or cells: human PBMCs from healthy donors
- methodNotes: Human PBMC cell-based assay, TLR7 agonist GS-986 stimulation, cytokine (IL-6 and IFNα) readout
- testParameters: human PBMCs, GS-986 400 nM, 6 hours; Table 26; read-out: TLR-7 EC50
- Description: Human peripheral blood mononuclear cells (PBMCs) consist of lymphocytes, monocytes and dendritic cells that express TLR7, TLR8 and TLR9. These cells respond to TLR7, TLR8 and TLR9 ligand stimulation and produce cytokines and chemokines in vitro and in vivo. Human PBMCs are therefore suitable to be used in a cell-based assay to assess the in vitro potency of a TLR 7, 8, and/or 9 antagonist. […]
measuredMetric: EC50

> print(dat)
                                    compound        targetofassay  measuredmetric  datavalue
 1  Cc1cc(-c2[nH]c3cc(-c4ccc(C5=CCNCC5)nc4)ccc3c2C)cc(C)n1  TLR7 (Homo sapiens)            EC50     5.1 nM
 2  Cc1cc(-c2[nH]c3cc(-c4ccc(N5CCNCC5)nc4)cnc3c2C)cc(C)n1  TLR7 (Homo sapiens)            EC50    1260 nM
 3  Cc1cc(-c2[nH]c3cc(-c4cnn(C5CCNCC5)c4)ccc3c2C)cc(C)n1  TLR7 (Homo sapiens)            EC50    15.8 nM
 4  Cc1cc(-c2[nH]c3cc(-c4ccc5c(c4)CC(N)C5)ccc3c2C)cc(C)n1 (centres unmarked)  TLR7 (Homo sapiens)            EC50     119 nM
 5  Cc1cc(-c2[nH]c3cc(-c4ccnc(N5CCNCC5)c4)ccc3c2C)cc(C)n1  TLR7 (Homo sapiens)            EC50     315 nM
 6  Cc1cc(-c2[nH]c3cc(-c4ccc(N5CCNCC5)nc4)ncc3c2C)cc(C)n1  TLR7 (Homo sapiens)            EC50     867 nM
 7  Cc1cc(-c2[nH]c3cc(-c4ccc(C(=O)N5CC6CNCC6C5)cc4)ccc3c2C)cc(C)n1 (centres unmarked)  TLR7 (Homo sapiens)            EC50      48 nM
 8  Cc1cc(-c2[nH]c3cc(-c4ccc(C(=O)N5CCNCC5)cc4)ccc3c2C)cc(C)n1  TLR7 (Homo sapiens)            EC50    84.3 nM
 9  Cc1c(-c2cc(C)c3ncnn3c2)[nH]c2cc(-c3ccc4c(c3)ncn4C3CC4CC3CN4)ccc12 (centres unmarked)  TLR7 (Homo sapiens)            EC50    1.01 nM
10  Cc1cc(-c2[nH]c3cc(-c4ccc(N5CCN(C(=O)[C@@H]6CCCN6C)CC5)nc4)ccc3c2C)cc(C)n1  TLR7 (Homo sapiens)            EC50    44.5 nM
11  Cc1cc(-c2[nH]c3cc(C#CC4CCNCC4)ccc3c2C)cc(C)n1  TLR7 (Homo sapiens)            EC50     437 nM
12  Cc1cc(-c2[nH]c3cc(-c4cn(C5CCNCC5)nc4C)ccc3c2C)cc(C)n1  TLR7 (Homo sapiens)            EC50     345 nM
13  Cc1cc(-c2[nH]c3cc(-c4nnc(C5CCNCC5)o4)ccc3c2C)cc(C)n1  TLR7 (Homo sapiens)            EC50      16 nM
14  Cc1cc(-c2[nH]c3cc(-c4nc(N5CCNCC5)no4)ccc3c2C)cc(C)n1  TLR7 (Homo sapiens)            EC50     270 nM
15  Cc1cc(-c2[nH]c3cc(-c4ccc(N5CC[C@H](N)C5)nc4)ccc3c2C)cc(C)n1  TLR7 (Homo sapiens)            EC50    17.7 nM
16  Cc1cc(-c2[nH]c3cc(-c4ccc(N5CCNCC5)nc4)ccc3c2C)cc(C#N)n1  TLR7 (Homo sapiens)            EC50    10.5 nM
17  Cc1cc(-c2[nH]c3cc(-c4ccc(N5CCN(C(=O)[C@H]6CCCN6C)CC5)nc4)ccc3c2C)cc(C)n1  TLR7 (Homo sapiens)            EC50    15.3 nM
18  Cc1cncc(-c2[nH]c3cc(-c4ccc(N5CCNCC5)nc4)ccc3c2C)c1  TLR7 (Homo sapiens)            EC50    1990 nM
19  Cc1c(-c2cn(C)c(=O)c3ccccc23)[nH]c2cc(-c3ccc(N4CCNCC4)nc3)ccc12  TLR7 (Homo sapiens)            EC50     664 nM
20  Cc1cc(-c2[nH]c3cc(C(=O)N[C@H]4CCCNC4)ccc3c2C)cc(C)n1  TLR7 (Homo sapiens)            EC50     334 nM
21  Cc1cc(-c2[nH]c3cc(-c4cccc5c4CNC5)ccc3c2C)cc(C)n1  TLR7 (Homo sapiens)            EC50     163 nM
22  Cc1c(-c2cnc(C(F)(F)F)nc2)[nH]c2cc(-c3ccc(N4CCNCC4)nc3)ccc12  TLR7 (Homo sapiens)            EC50     778 nM
23  Cc1cc(-c2[nH]c3cc(-c4nc(N5CCNCC5)cs4)ccc3c2C)cc(C)n1  TLR7 (Homo sapiens)            EC50    37.4 nM
24  Cc1cc(-c2[nH]c3cc(C4CCNCC4)ccc3c2C(C)C)cc(C)n1  TLR7 (Homo sapiens)            EC50     222 nM
25  Cc1cc(-c2[nH]c3cc(-c4cccc(C(=O)N5CCN6CCC5C6)c4)ccc3c2C)cc(C)n1 (centres unmarked)  TLR7 (Homo sapiens)            EC50    98.9 nM
26  Cc1cc(-c2[nH]c3cc(-c4ccc(N5CCC(N)CC5)nc4)ccc3c2C2CC2)cc(C)n1  TLR7 (Homo sapiens)            EC50     8.3 nM
27  Cc1cc(-c2[nH]c3cc(-c4ccc(N5CCNCC5)nc4)ccc3c2C)c(C)cn1  TLR7 (Homo sapiens)            EC50    14.3 nM
28  Cc1cc(-c2[nH]c3cc(-c4ccc5c(c4)CNC5)ccc3c2C)cc(C)n1  TLR7 (Homo sapiens)            EC50    53.6 nM
29  Cc1cc(-c2[nH]c3cc(C4CCNCC4)ccc3c2C(C)C)cn2ncnc12  TLR7 (Homo sapiens)            EC50     4.8 nM
30  Cc1cc(-c2[nH]c3cc(C(=O)NC4CCNCC4)ccc3c2C)cc(C)n1  TLR7 (Homo sapiens)            EC50  > 1000 nM
31  Cc1cc(-c2[nH]c3cc(-c4ccc(N5CCN(C(=O)[C@H]6CCCN6)CC5)nc4)ccc3c2C)cc(C)n1  TLR7 (Homo sapiens)            EC50    41.9 nM
32  Cc1cc(-c2[nH]c3cc(-c4ccc5[nH]c(C6CCNCC6)nc5c4)ccc3c2C)cc(C)n1  TLR7 (Homo sapiens)            EC50  > 1000 nM

Reference source: patent US20250002471A1
